growth inhibition listing for selected molecules.
# test.summary: NCI Yeast Anticancer Drug Screen. Data for the rad50 strain (AID 155);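 further: 0% = growth of vehicle-only cultures of the same strain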
# experimental.context: S. cerevisiae rad50 strain growth inhibition, active compounds read high; at 50.0 µM unless noted
# Description: Growth inhibition of yeast strains with defined genetic alterations is measured as a screen for potential anti-cancer activity. Selected strains with alterations in DNA damage repair or cell cycle control were exposed to compounds and growth inhibition was measured relative to vehicle treated controls. The strain used in this assay is rad50
The panel holds about 79,000 compounds, 15% with a hit somewhere; the sample as a whole holds those more often.
Note: unit % is implicit; provide only the numeric part.

Example cases with answers are listed next.
In [3]: df
Out[3]:
                      smiles_representation  quantity_measured  u  result_number
0  Cc1cc(C)c(-c2noc(-c3ccc(Cl)cc3)c2C2=NCCN2)c(C)c1  growth inhibition  %           29.9
1              CCOc1ccc2c(c1)S(=O)(=O)OC2=O  growth inhibition  %          -11.1
2  CCOC(=C\C(=O)NC)/C=C/c1ccc([N+](=O)[O-])cc1  growth inhibition  %          -5.75
3                        Cn1cnc2ncnc(Cl)c21  growth inhibition  %           1.85
4  Cc1c(SC(Cl)(Cl)Cl)cc([N+](=O)[O-])c(N(C)C)c1[N+](=O)[O-]  growth inhibition  %           13.5

Next, consider the following molecule.
Recorded result, C[n+]1ccc(/C=N/O)cc1 , growth inhibition: -5.05

###

# test.summary: NCI Yeast Anticancer Drug Screen. Data for the mec2-1 strain (AID 157)
# experimental.context: S. cerevisiae mec2-1 strain, active compounds read high; at 50.0 µM unless noted
The panel holds about 79,000 compounds, 15% with a hit somewhere; the sample as a whole holds those more often.
quantity.measured: growth inhibition (%)
I only need the number, in %, no unit after it.

Please review the following examples before continuing.
>>> print(df.to_string())
                                   molecule  quantity_measured  u  result_number
0                Nc1nc(=S)c2c(ncn2CCO)[nH]1  growth inhibition  %          -32.2
1                         O=C(O)c1ccc(Cl)o1  growth inhibition  %           -3.6
2       O=P1(O)c2ccccc2Nc2cc(C(F)(F)F)ccc21  growth inhibition  %          -8.25
3          Cc1ccc(-c2nc3ccc(Cl)cc3[nH]2)cc1  growth inhibition  %            9.1
4             CCOC(=O)O/C(C)=C\c1ccc(Cl)cc1  growth inhibition  %          -2.65
5              Cc1ccc(/C=C2\CCCC\C2=N\O)cc1  growth inhibition  %             -7
6  COc1cc(Br)c(CC(NC=O)c2ccc(OC)c(OC)c2OC)cc1OC (stereo not drawn)  growth inhibition  %           -0.1
7       C=CCc1cc2c(C)cc(=O)oc2c(C)c1OC(C)=O  growth inhibition  %          -23.8

GET /value?item= CS(=O)(=O)c1ccc(/C(=N/N)c2ccccc2)cc1 &field=growth inhibition returns 9.65

Record CN(C)C(=O)NCCN(CCNC(=O)N(C)C)C(=O)N(C)C . Reported growth inhibition: 13.2

Form field growth inhibition, entry CC(C)(O)CCO : -40.4

In plain terms, [N-]=[N+]=Nc1ccc2nc(N)nc(N)c2c1 has a documented growth inhibition of 5.7

According to the records, this molecule Cc1cc([N+](=O)[O-])ccc1P(=O)(O)O displays growth inhibition of 7.6

###

# test.summary: NCI Yeast Anticancer Drug Screen. Data for the cln2 rad14 strain (AID 165);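 further: 0% = growth equal to vehicle treated cultures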
# experimental.context: S. cerevisiae cln2 rad14 strain, active compounds read high; at 50.0 µM unless noted
About 79,000 compounds went through this panel and 15% of them were active in at least one assay; those are over-represented in the sample as a whole.
quantity.measured: growth inhibition (%)
Dear colleague, please return just the value in %, with no unit written.

Below, each entry is followed by its recorded growth inhibition result.
molecule	growth inhibition [%]
COc1ccc(N2CC[N+](c3ccc(N(C)C)cc3)=C2C2=[N+](c3ccc(N(C)C)cc3)CCN2c2ccc(OC)cc2)cc1	-7.6
CCN(CC)c1ccc2cc(C(=O)NCc3ccccc3)c(=N)oc2c1	3.45
O=C(Cc1nc2ccccc2s1)C(=O)Nc1cccc(C(F)(F)F)c1	7.95
c1ccc2c3c([nH]c2c1)CCCC3	-31.4
C=C1C(=O)OC2CC1C(OC(C)=O)CC1(C)OC1CCC1(C)OC1CCC2(C)O (centres undefined)	-2.7
COc1ccc2c(c1)[nH]c1c3ccc(OC)cc3oc(=O)c21	1.95

Sample CON1C(=O)C(c2ccccc2)c2ccccc21 (centres undefined) ; growth inhibition observed: 3.1

growth inhibition reading for O=C(/C=C/c1ccc(-c2ccccc2)cc1)c1ccccc1 : -3.3

For c1ccc(N2CN(c3ccccc3)C2)cc1 the molecule record lists growth inhibition as -11.6

growth inhibition recorded for this molecule, COc1ccccc1NC(=O)C1=C(C)NC(C)=C(C(=O)Nc2ccccc2OC)C1c1ccc(C)cc1 , is 12.1

growth inhibition for Nc1c(F)c(F)c(N=Nc2ccccc2)c(F)c1F is 7.05

Value of measured growth inhibition for the entry COc1ccc(C(N2CCNCC2)N2CCNCC2)cc1 : -30.1

Quick note, growth inhibition for C=C1C(=O)OC2/C=C(\C)C(O)/C=C\C(C)(O)CC(OC(=O)/C(C)=C/C)C12 (centres undefined) landed at -2

###

# test.summary: NCI Yeast Anticancer Drug Screen. Data for the mlh1 rad18 strain (AID 175)
# experimental.context: S. cerevisiae mlh1 rad18 strain growth inhibition; at 50.0 µM unless noted
# Procedure: Growth inhibition of yeast strains with defined genetic alterations is measured as a screen for potential anti-cancer activity. Selected strains with alterations in DNA damage repair or cell cycle control were exposed to compounds and growth inhibition was measured relative to vehicle treated controls. The strain used in this assay is mlh1 rad18
About 79,000 compounds went through this panel and 15% of them were active in at least one assay; those are over-represented in the sample as a whole. The source made the active and inactive calls. Cut-off read from the data, not from the text of the source: active = growth inhibition above about 70%; inactive = the rest.
Parameter call: string, one of active, inactive

Known results for molecules:
molecule	class.name
Cc1ccc(S(=O)(=O)CCC#N)cc1	inactive
Nc1nc(CC2(O)CCCCC2)cc(-c2ccccc2)n1	inactive
COc1ccc(-c2nnc(N)s2)cc1OC	inactive
CN(C)CCCC(=O)O	inactive
COC(=O)C1(C)CCCC2(C)C1CCC1(O)C(O)C(C(C)C)=CCC21 (stereo not given)	inactive
NC(=O)Nc1nc2ccccc2[nH]1	inactive
COc1c(Cl)cc(C(c2cc(Cl)c(OC)c(Cl)c2)C(Cl)(Cl)Cl)cc1Cl	inactive
CO/N=C(/NC(=O)OC)c1ccccc1	inactive
c1ccc2c(c1)/C(=N/c1nccs1)N/C2=N\c1nccs1	inactive
CN(C)C(=O)Sc1ccc(C(C)(C)C)cc1	inactive

Input line: Assay outcome for O=C1NC(Cc2ccccc2)C(=O)NC1Cc1ccccc1 (stereo not given) : what was it?
Output line: inactive

Input line: Hi, sorry to bother you, what did the test record for O=c1[nH]c(=O)c2nc3c(=O)[nH]c(=O)[nH]c3nc2[nH]1 ?
Output line: inactive

Input line: Lab log entry: O=C(Nc1ccc(C(=O)O)cc1)Nc1cccc(Cl)c1 — outcome as called in the assay?
Output line: inactive

###

# test.summary: NCI Yeast Anticancer Drug Screen. Data for the mec2-1 strain (AID 157)
# experimental.context: S. cerevisiae mec2-1 strain, active compounds read high; at 50.0 µM unless noted
About 79,000 compounds went through this panel and 15% of them were active in at least one assay; those are over-represented in the sample as a whole. Where a SMILES comes first, the peptide text is derived from it. The star is where a group is joined. Cbz = O=C(OCc1ccccc1)*; NHNH2 = NN*
The entries below are paired with their reported growth inhibition.
Report only the number, with the unit % understood.

Past entries and their recorded results:
compound	growth inhibition [%]
CCOC(=O)CCC(NC(=O)OCc1ccccc1)C(=O)NC(CCC(=O)OCC)C(=O)NN (configuration not stated) (Cbz-Glu(OEt)-Glu(OEt)-NHNH2; configuration not given here)	7.75
CCCCCCCCCCCC(=O)NCc1ccc(OC(=O)CCCCCCCCCCC)c(OC)c1	-9.8

Field growth inhibition (entry C/C(=C\CNc1ncnc2c1ncn2CCC#N)CO ) reads 13.2

Lab book: growth inhibition of N#Cc1ccccc1NC(=O)C(=O)c1c(O)c2ccccc2oc1=O noted as -6.8

The measured growth inhibition associated with CC12CCC(=O)C=C1CCCC2=O (configuration not stated) reads -12.3

Sample CCOC(=O)CN1C(=O)/C(=C2\SC(=S)N(CC(=O)OCC)C2=O)SC1=S ; growth inhibition observed: 9.95

Recorded result, COc1ccc2oc3c(OC)c(OC)c(OC)cc3c(=O)c2c1 , growth inhibition: -21.6

growth inhibition recorded for this compound, NNc1nc(NCc2ccco2)c2[nH]cnc2n1 , is -7.95

FYI, the data here is from PubChem BioAssay (NCI).
